Test system: Fibroblast
Test: Incucyte cell viability with human fibroblast; also: unitless GR value; below 1 slowed growth and below 0 cell loss
Assay type: toxicity, cell-based
Details: 18 h, 10 µM, compound concentration 10 uM, replicate number 1, timepoint 18 hours
Measured Growth Rate values are reported for all entries that follow.
assay-readout: Growth Rate

molecule="Cl.Clc1ccc2nsnc2c1NC1=NCCN1 [TIZANIDINE HYDROCHLORIDE]" recorded_measurement=0.25
molecule="Cc1ccccc1C(=O)Nc1ccc(C(=O)N2CCCC(N(C)C)c3ccccc32)cc1.Cl (stereo not drawn)" recorded_measurement=-0.63
molecule="CC(C)NCC(O)COc1cccc2[nH]ccc12 (stereo not drawn)" recorded_measurement=0.94
molecule=CCc1ccccc1C(=O)Nc1n[nH]c2c(C)c(F)c(C3C(C#N)=C(C)N(C)C(C)=C3C#N)cc12 recorded_measurement=0.79
molecule="CN(C)C/C=C/C(=O)Nc1ccc(C(=O)N2CCCC(Nc3ncc(Cl)c(-c4c[nH]c5ccccc45)n3)C2)cc1 (stereo not drawn)" recorded_measurement=-0.7
molecule=O=C(Nc1cc(C(F)(F)F)ccc1N1CCN(Cc2ccccn2)CC1)c1ccc(-c2ccncc2)o1 recorded_measurement=0.1
molecule=C[C@H](NC(=O)c1c(C(F)F)nn(C)c1Oc1cccc(C(F)(F)F)c1)c1ccc(C(=O)O)cc1 recorded_measurement=0.96
molecule=O=C(N[C@@H]1CC[C@@H](c2cccc(F)c2F)CN(CC(F)(F)F)C1=O)N1CCC(n2c(=O)[nH]c3ncccc32)CC1 recorded_measurement=0.11

====

Test system: Fibroblast
Test: Incucyte cell viability with human fibroblast; also: unitless GR value; below 1 slowed growth and below 0 cell loss
Assay type: toxicity, cell-based
Settings: 12 h, 10 µM, compound concentration 10 uM, replicate number 2, timepoint 12 hours
Entries are grouped by Growth Rate into these classes: category 1 = under 0.09, category 2 = from 0.09 up to 0.7, category 3 = 0.7 and over

compound="CCOC(=O)N[C@@H]1CC[C@@H]2[C@@H](C1)C[C@H]1C(=O)O[C@H](C)[C@H]1[C@H]2/C=C/c1ccc(-c2cccc(F)c2)cn1 [VORAPAXAR]" qualitative_label="category 1"
compound=CC(F)(F)CN1CCOc2c(nn(-c3ccccc3Cl)c2-c2ccc(Cl)cc2)C1=O qualitative_label="category 2"
compound=CN(c1ncccc1CNc1ccnc(-c2cc3cc(Cl)ccc3[nH]2)n1)S(C)(=O)=O qualitative_label="category 1"
compound="CCCCC/C=C\\C/C=C\\C/C=C\\C/C=C\\CCCC(=O)NCC(=O)O [ARACHIDONOYL GLYCINE]" qualitative_label="category 3"
compound=N[C@@]1(C(=O)O)CC[C@H]2[C@H](C(=O)O)[C@H]21 qualitative_label="category 2"
compound="Cc1cc(-c2ccc3c(c2)CC[C@H]3N2CC3(CCN(C(=O)Cc4cn5cc(C)sc5n4)CC3)C2)ncn1 [PF-5190457]" qualitative_label="category 3"
compound=CSCC[C@H](NC=O)C(=O)N[C@@H](CC(C)C)C(=O)N[C@@H](Cc1ccccc1)C(=O)O qualitative_label="category 2"
compound="CC(C)Oc1ccc(-c2nc(-c3cccc4c3CC[C@@H]4NCCO)no2)cc1C#N [OZANIMOD]" qualitative_label="category 1"
compound=O=C1[C@H](Cc2ccc(O)cc2)N2C(=O)CCN(C(=O)NCc3ccccc3)[C@H]2CN1Cc1cccc2ccccc12 qualitative_label="category 1"
compound=O=C(O)c1cccc(/C=C2/C[C@@H]3[C@@H](/C=C/[C@H](O)C4CCCCC4)[C@H](O)C[C@@H]3O2)c1 qualitative_label="category 3"
compound="N[C@@H]1c2cccnc2[C@H](OC(=O)N2CCC(n3c(=O)[nH]c4ncccc43)CC2)CC[C@H]1c1cccc(F)c1F [RIMEGEPANT]" qualitative_label="category 1"
compound="Cc1noc(C)c1-c1cnc2c(-c3ccc(C(=O)O)cc3)cn([C@@H](C)c3ccccn3)c2c1 [PLX-51107]" qualitative_label="category 3"
compound="Cc1ccc(F)cc1C(=O)Nc1ccc(C(=O)N2Cc3cccn3Cc3ccccc32)c(Cl)c1 [LIXIVAPTAN]" qualitative_label="category 2"
compound="CC(=O)O[C@H]1C(=O)[C@@]2(C)[C@H]([C@H](OC(=O)c3ccccc3)[C@]3(O)C[C@H](OC(=O)[C@H](O)[C@@H](NC(=O)c4ccccc4)c4ccccc4)C(C)=C1C3(C)C)[C@]1(OC(C)=O)CO[C@@H]1C[C@@H]2O [PACLITAXEL]" qualitative_label="category 1"
compound="CCC(=O)NCC[C@@H]1CCc2ccc3c(c21)CCO3 [RAMELTEON]" qualitative_label="category 3"
compound=CC(=O)c1ccc2c(c1)[C@@H]1C=CC[C@@H]1[C@H](c1cc3c(cc1Br)OCO3)N2 qualitative_label="category 1"
compound=CCN1/C(=C/C(C)=O)Sc2ccc(OC(C)=O)cc21 qualitative_label="category 2"
compound=CN1CCN(c2ccc(Nc3c4ccccc4nc4ccccc34)cc2)CC1.Cl.Cl.O qualitative_label="category 2"
compound="Cc1ccccc1C(=O)Nc1ccc(C(=O)N2CCCC(N(C)C)c3ccccc32)cc1.Cl (centres undefined)" qualitative_label="category 1"
compound=Cc1cc(=O)n(C)c2cc(N3C(=O)CC[C@H](NS(=O)(=O)CC(C)C)[C@H]3c3ccc(Cl)cc3)ccc12 qualitative_label="category 1"
compound="C[S+](C)[O-] [DIMETHYL SULFOXIDE]" qualitative_label="category 3"
compound=CC(C)CCC[C@@H](C)[C@H]1CC[C@H]2[C@@H]3[C@H](O)C=C4C[C@@H](O)CC[C@]4(C)[C@H]3CC[C@]12C qualitative_label="category 3"
compound=CN(C)C(=O)Cn1cc(-c2ccc(-c3nnc4ccccn34)cc2)cn1 qualitative_label="category 3"
compound="CS(=O)(=O)c1ccc(C(=O)Nc2ccc(Cl)c(-c3ccccn3)c2)c(Cl)c1 [VISMODEGIB]" qualitative_label="category 3"
compound=O=C(c1cc(C2CC2)on1)N(C1CCCCC1)C1CCCCC1 qualitative_label="category 3"
compound="O=c1ccc2ccc(OCCCCN3CCN(c4cccc5sccc45)CC3)cc2[nH]1 [BREXPIPRAZOLE]" qualitative_label="category 2"
compound=O=C(CCCc1ccccc1)Nc1nc2ccccc2c(=O)s1 qualitative_label="category 1"
compound=CC(=O)c1cc(-c2ccccc2OCC2CC2)c2ncccn12 qualitative_label="category 3"
compound=CC(C)c1c(NC(=O)Nc2ccc(Cl)cc2)c(=O)n(-c2ccccc2)n1C qualitative_label="category 2"
compound=COC(=O)[C@H](CCCNC(=N)N)NC(=O)CCCc1c(-c2ccccc2)[nH]c2c(F)cc(F)cc12.O=C(O)C(F)(F)F qualitative_label="category 2"
compound=Cc1ccc(Cn2nc(C(=O)N[C@@H]3C(C)(C)[C@@H]4CC[C@@]3(C)C4)cc2-c2ccc(Cl)c(C)c2)cc1 qualitative_label="category 2"
compound=Cc1nc2ccc(Oc3ccc(F)cc3)cc2c(=O)n1C[C@H]1CCCN(C(C)C)C1.Cl qualitative_label="category 1"
compound=Nc1nc(Nc2ccccc2)nc2c1ncn2[C@@H]1O[C@H](CO)[C@@H](O)[C@H]1O qualitative_label="category 3"

====

Test system: Fibroblast
Assay: Incucyte cell viability with human fibroblast; also: unitless GR value; below 1 slowed growth and below 0 cell loss
Assay type: toxicity, cell-based
Details: 18 h, 10 µM, compound concentration 10 uM, replicate number 1, timepoint 18 hours
Measured Growth Rate values are reported for all entries that follow.
assay-readout: Growth Rate

compound=CCN1C(=CC(C)=O)Sc2ccc(OC)cc21 study_system=Fibroblast recorded_measurement=0.69
compound=COc1ccc(C(=O)N2CCN(C(=O)/C=C/c3ccc(Br)cc3)CC2)cc1 study_system=Fibroblast recorded_measurement=0.44
compound=CCc1nn2c(C)cc(C)nc2c1Cc1ccc(-c2nnc(C3CCNCC3)o2)cc1 study_system=Fibroblast recorded_measurement=-0.43
compound=Cc1ccc(Cn2nc(C(=O)N[C@@H]3C(C)(C)[C@@H]4CC[C@@]3(C)C4)cc2-c2ccc(Cl)c(C)c2)cc1 study_system=Fibroblast recorded_measurement=0.78
compound=NC[C@H](O)c1ccc(O)c(O)c1.O.O=C(O)C(O)C(O)C(=O)O study_system=Fibroblast recorded_measurement=0.97
compound="CC(=O)O[C@H]1C(=O)[C@@]2(C)[C@H]([C@H](OC(=O)c3ccccc3)[C@]3(O)C[C@H](OC(=O)[C@H](O)[C@@H](NC(=O)c4ccccc4)c4ccccc4)C(C)=C1C3(C)C)[C@]1(OC(C)=O)CO[C@@H]1C[C@@H]2O [PACLITAXEL]" study_system=Fibroblast recorded_measurement=-0.57
compound=O=C1c2c(Br)c(Br)c(Br)c(Br)c2C(=O)N1c1ncc[nH]1 study_system=Fibroblast recorded_measurement=0.62
compound=Cc1cc(=O)n(C)c2cc(N3C(=O)CC[C@H](NS(=O)(=O)CC(C)C)[C@H]3c3ccc(Cl)cc3)ccc12 study_system=Fibroblast recorded_measurement=-0.76

====

Measured Growth Rate values are reported for all entries that follow.
Test system: U2OS
Experiment: Incucyte cell viability with U2OS; also: unitless GR value; below 1 slowed growth and below 0 cell loss
Assay type: toxicity, cell-based
Conditions: human, 6 h, 10 µM, compound concentration 10 uM, replicate number 2, timepoint 6 hours
assay-readout: Growth Rate

compound="Cc1ccc(C(C)(O)c2nc3ccccc3s2)c(C)c1 (stereo not given)" study_system=U2OS recorded_measurement=0.88
compound=NC[C@H](O)c1ccc(O)c(O)c1.O.O=C(O)C(O)C(O)C(=O)O study_system=U2OS recorded_measurement=0.72
compound=Cc1cc(C)cc(C(=O)NOCCCCCC(=O)NO)c1 study_system=U2OS recorded_measurement=0.51
compound="Cc1ccccc1C(=O)Nc1ccc(C(=O)N2CCCC(N(C)C)c3ccccc32)cc1.Cl (stereo not given)" study_system=U2OS recorded_measurement=-0.11
compound=CCCCOCCOc1nc(-c2ccc(C(=O)O)c(F)c2)sc1C study_system=U2OS recorded_measurement=0.97
compound=N#Cc1cc(F)cc(-c2nc(-c3ccc(F)cn3)no2)c1 study_system=U2OS recorded_measurement=0.62
compound=COc1cc(/C=C/C(=O)NCCn2c(C)cc3ccccc32)cc(OC)c1OC study_system=U2OS recorded_measurement=0.73
compound=Cc1cccc(S(=O)(=O)N(C)[C@H](C)CCN2CCC(C)CC2)c1.Cl study_system=U2OS recorded_measurement=0.95
compound=C[C@@](Cc1c[nH]c2ccccc12)(NC(=O)Nc1ccc([N+](=O)[O-])cc1)C(=O)NCC1(c2ccccn2)CCCCC1 study_system=U2OS recorded_measurement=0.12
compound="CC[S+]([O-])c1nc(-c2cccc(OCc3ccccc3)c2)cc(C(F)(F)F)n1 (stereo not given)" study_system=U2OS recorded_measurement=-0.17

Data provenance: ChEMBL document CHEMBL5058564
